Test: Blood-brain barrier permeability by PAMPA-BBB assay
Type: ADME
pBBB of 7 ×10⁻⁶ cm/s or higher: 1.0. Under 7 ×10⁻⁶ cm/s: 0.0.

Solved entries:
Identify whether the reported pBBB of the following compound is 7 ×10⁻⁶ cm/s or greater: O=C(c1ccc(Cn2ccc3cc(Cl)ccc32)cc1)N1CC[C@H](N2CCCC2)C1
1.0

Note, next up: O=C(c1ccc(Cn2cnc3ccccc32)cc1)N1CC[C@H](N2CCCC2)C1
0.0

Note, next up: O=C(c1ccc(Cn2ccc3ccc(Cl)cc32)cc1)N1CC[C@H](N2CCCC2)C1
1.0

Further cases:
Identify whether the reported pBBB of the following compound is 7 ×10⁻⁶ cm/s or greater: Cc1nc2ccccc2n1Cc1ccc(C(=O)N2CC[C@H](N3CCCC3)C2)cc1
0.0

Note, next up: O=C(c1ccc(Cn2ccc3ccccc32)cc1)N1CC[C@H](N2CCCC2)C1
1.0

Note, next up: CN(C)C1CCN(C(=O)c2ccc(Cn3c(-c4ccccc4)nc4ccccc43)cc2)C1 (configuration not stated)
1.0

====

Assay: Tmax in rat plasma at 30 mg/kg, ip
Format: ADME, organism-based
Parameters: dose 30 mg/kg, route intraperitoneal
PROPERTY MEASURED: Tmax
The reply must contain the numeric value and, after it, the unit.

Which Tmax is reported for this compound? O=C(c1ccc(Cn2ccc3cccc(Cl)c32)cc1)N1CC[C@H](N2CCCC2)C1
30 min

====

Experiment: AUC in rat brain at 10 mg/kg, ip
Format: ADME, organism-based
Design: dose 10 mg/kg, route intraperitoneal
PROPERTY MEASURED: AUC (ng·h/mL)
Field: numeric (ng·h/mL). Do not append units.

Which AUC is reported for this compound? O=C(c1ccc(Cn2cnc3ccccc32)cc1)N1CC[C@H](N2CCCC2)C1
231

====

Target: Histamine H3 receptor (Homo sapiens, UniProt Q9Y5N1)
Sequence (Q9Y5N1 whole entry): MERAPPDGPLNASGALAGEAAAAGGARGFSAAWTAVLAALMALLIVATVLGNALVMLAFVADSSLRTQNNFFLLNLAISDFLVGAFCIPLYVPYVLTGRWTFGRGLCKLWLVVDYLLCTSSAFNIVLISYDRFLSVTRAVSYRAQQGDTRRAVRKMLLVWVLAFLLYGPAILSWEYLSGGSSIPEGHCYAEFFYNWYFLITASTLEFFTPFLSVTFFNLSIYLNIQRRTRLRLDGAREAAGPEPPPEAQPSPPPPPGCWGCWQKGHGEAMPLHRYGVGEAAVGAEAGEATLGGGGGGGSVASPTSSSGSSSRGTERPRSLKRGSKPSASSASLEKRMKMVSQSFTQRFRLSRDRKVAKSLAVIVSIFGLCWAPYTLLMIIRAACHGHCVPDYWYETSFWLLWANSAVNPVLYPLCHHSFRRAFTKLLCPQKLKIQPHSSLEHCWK
Assay: Displacement of [3H](R)-alpha-methylhistamine from human cloned histamine H3 receptor expressed in HEK293T cells by liquid scintillation spectrometry
Assay type: cell-based, HEK-293T
PROPERTY MEASURED: pKi
Lab note — pKi values are minus log10 of concentrations in M.

A selection of reference data follows.
Which pKi is reported for this molecule? CN(C)C1CCN(C(=O)c2ccc(Cn3c(-c4ccccc4)nc4ccccc43)cc2)C1 (stereo not given)
7.00

Note, next up: CN(CCO)C1CCN(C(=O)c2ccc(Cn3c(-c4ccccc4)nc4ccccc43)cc2)C1 (stereo not given)
5.92

Note, next up: CN(C)C1CCN(C(=O)c2ccc(Cn3c(-c4ccccn4)nc4ccccc43)cc2)C1 (stereo not given)
6.63

Note, next up: O=C(c1ccc(Cn2ccc3ccccc32)cc1)N1CC[C@H](N2CCCC2)C1
7.82

Proceed to the following item.
Which pKi is reported for this molecule? CN(C)[C@@H]1CCN(C(=O)c2ccc(Cn3c(-c4ccccc4)nc4ccccc43)cc2)C1
6.36

====

Assay: Aqueous solubility at pH 3.1
Type: physicochemical
Details: aqueous medium
PROPERTY MEASURED: solubility (µg/mL)
Field: numeric (µg/mL). Do not append units.

A selection of reference data follows.
Which solubility is reported for this compound? O=C(c1ccc(Cn2ccc3ccc(Cl)cc32)cc1)N1CC[C@H](N2CCCC2)C1
13

Note, next up: Cc1nc2ccccc2n1Cc1ccc(C(=O)N2CC[C@H](N3CCCC3)C2)cc1
32

Note, next up: O=C(c1ccc(Cn2cnc3ccccc32)cc1)N1CC[C@H](N2CCCC2)C1
51

Further cases:
Which solubility is reported for this compound? O=C(c1ccc(Cn2ccc3cccc(Cl)c32)cc1)N1CC[C@H](N2CCCC2)C1
18

Note, next up: O=C(c1ccc(Cn2ccc3cc(Cl)ccc32)cc1)N1CC[C@H](N2CCCC2)C1
10

Note, next up: O=C(c1ccc(Cn2ccc3ccccc32)cc1)N1CC[C@H](N2CCCC2)C1
28

====

Assay: Permeability across apical to basolateral side of human Caco-2 cell membrane
Type: ADME, cell-based
Details: read-out: permeability
PROPERTY MEASURED: Papp A→B

Which Papp A→B is reported for this compound? CN(C)C1CCN(C(=O)c2ccc(Cn3c(-c4ccccc4)nc4ccccc43)cc2)C1 (stereo unspecified)
84.9 ×10⁻⁶ cm/s

====

Assay: AUC in rat plasma at 10 mg/kg, ip
Format: ADME, organism-based
Set-up: dose 10 mg/kg, route intraperitoneal
PROPERTY MEASURED: AUC (ng·h/mL)
Field: numeric (ng·h/mL). Do not append units.

Which AUC is reported for this molecule? O=C(c1ccc(Cn2cnc3ccccc32)cc1)N1CC[C@H](N2CCCC2)C1
1040

====

Assay: Ratio of AUC in rat brain to plasma at 30 mg/kg, ip
Assay type: ADME, organism-based
Parameters: dose 30 mg/kg, route intraperitoneal
Settings: brain and plasma
PROPERTY MEASURED: Kp
// no unit, no text: just the number

Which Kp is reported for this compound? O=C(c1ccc(Cn2ccc3cccc(Cl)c32)cc1)N1CC[C@H](N2CCCC2)C1
6.9

====

Assay: AUC in rat brain at 30 mg/kg, ip
Format: ADME, organism-based
Parameters: dose 30 mg/kg, route intraperitoneal
PROPERTY MEASURED: AUC (ng·h/mL)
Field: numeric (ng·h/mL). Do not append units.

Which AUC is reported for this molecule? O=C(c1ccc(Cn2ccc3cccc(Cl)c32)cc1)N1CC[C@H](N2CCCC2)C1
15000

====

Tmax by entry:
Test: Tmax in rat at 10 mg/kg, po
Assay type: ADME, organism-based
Design: dose 10 mg/kg, route oral
Details: in vivo
Field: numeric (min). Do not append units.

Which Tmax is reported for this compound? O=C(c1ccc(Cn2cnc3ccccc32)cc1)N1CC[C@H](N2CCCC2)C1
24

Proceed to the following item.
Which Tmax is reported for this compound? O=C(c1ccc(Cn2ccc3cccc(Cl)c32)cc1)N1CC[C@H](N2CCCC2)C1
72

====

Experiment: Volume of distribution at steady state in rat at 2 mg/kg, iv
Format: ADME, organism-based
Design: dose 2 mg/kg, route intravenous
Conditions: in vivo, read-out: Vdss
PROPERTY MEASURED: Vd (L/kg)
Field: numeric (L/kg). Do not append units.

Which Vd is reported for this molecule? O=C(c1ccc(Cn2ccc3cccc(Cl)c32)cc1)N1CC[C@H](N2CCCC2)C1
7.3

Proceed to the following item.
Which Vd is reported for this molecule? O=C(c1ccc(Cn2cnc3ccccc32)cc1)N1CC[C@H](N2CCCC2)C1
3.6

====

Target: Histamine H3 receptor (Homo sapiens, UniProt Q9Y5N1)
Ki by entry:
Field: numeric (nM). Do not append units.

Which Ki is reported for this molecule? CN(C)[C@H]1CCN(C(=O)c2ccc(Cn3c(-c4ccccc4)nc4ccccc43)cc2)C1
65

Note, next up: O=C(c1ccc(Cn2c(-c3ccccc3)nc3ccccc32)cc1)N1CCC(N2CCCC2)C1 (stereo not given)
10

Note, next up: O=C(c1cccc(Cn2cnc3ccccc32)c1)N1CCC(N2CCCC2)C1 (stereo not given)
400

Note, next up: Cc1nc2ccccc2n1Cc1ccc(C(=O)N2CCC(N(C)C)C2)cc1 (stereo not given)
17

Further cases:
Which Ki is reported for this molecule? O=C(c1ccc(Cn2ccc3ccc(Cl)cc32)cc1)N1CC[C@H](N2CCCC2)C1
150

====

Assay: Cmax in rat brain at 10 mg/kg, ip
Format: ADME, organism-based
Design: dose 10 mg/kg, route intraperitoneal
PROPERTY MEASURED: Cmax
The reply must contain the numeric value and, after it, the unit.

Which Cmax is reported for this compound? O=C(c1ccc(Cn2cnc3ccccc32)cc1)N1CC[C@H](N2CCCC2)C1
245 nM

====

Test: Cmax in rat at 10 mg/kg, po
Type: ADME, organism-based
Set-up: dose 10 mg/kg, route oral
Settings: in vivo
PROPERTY MEASURED: Cmax

Which Cmax is reported for this molecule? O=C(c1ccc(Cn2cnc3ccccc32)cc1)N1CC[C@H](N2CCCC2)C1
1750 ng/mL

Further cases:
Which Cmax is reported for this molecule? O=C(c1ccc(Cn2ccc3cccc(Cl)c32)cc1)N1CC[C@H](N2CCCC2)C1
22 ng/mL

====

Experiment: Cmax in rat brain at 30 mg/kg, ip
Type: ADME, organism-based
Design: dose 30 mg/kg, route intraperitoneal
PROPERTY MEASURED: Cmax (µM)
Field: numeric (µM). Do not append units.

Which Cmax is reported for this molecule? O=C(c1ccc(Cn2ccc3cccc(Cl)c32)cc1)N1CC[C@H](N2CCCC2)C1
16

====

Test: Oral bioavailability in rat at 10 mg/kg
Type: ADME, organism-based
Conditions: in vivo
PROPERTY MEASURED: bioavailability (%)
Field: numeric (%). Do not append units.

Which bioavailability is reported for this compound? O=C(c1ccc(Cn2ccc3cccc(Cl)c32)cc1)N1CC[C@H](N2CCCC2)C1
5

Further cases:
Which bioavailability is reported for this compound? O=C(c1ccc(Cn2cnc3ccccc32)cc1)N1CC[C@H](N2CCCC2)C1
93
